Tested on: human red blood cells
Design: unit not given beside the values
Non-standard residues stand in square brackets, D forms with d. Residues, ends and D or L forms follow the SMILES beside them. Dip = N[C@H](C(=O)O)C(c1ccccc1)c1ccccc1; 2Nal = N[C@@H](Cc1ccc2ccccc2c1)C(=O)O; d2Nal = N[C@H](Cc1ccc2ccccc2c1)C(=O)O; Dab = NCC[C@H](N)C(=O)O
parameter: HC50

compound="N=C(N)NCCC[C@@H]1NC(=O)[C@H](CCCNC(=N)N)NC(=O)[C@H](Cc2c[nH]c3ccccc23)NC(=O)[C@H](C(c2ccccc2)c2ccccc2)NC(=O)[C@H](C(c2ccccc2)c2ccccc2)NC(=O)[C@H](CCCNC(=N)N)NC1=O [IFX-022, c[Arg-Arg-Arg-Dip-Dip-Trp]] (cyclo([Dip][Dip]WRRR))" tgt="human red blood cells" val=215
compound="N=C(N)NCCC[C@@H]1NC(=O)[C@H](CCCNC(=N)N)NC(=O)[C@H](C(c2ccccc2)c2ccccc2)NC(=O)[C@H](Cc2c[nH]c3ccccc23)NC(=O)[C@H](C(c2ccccc2)c2ccccc2)NC(=O)[C@H](CCCNC(=N)N)NC1=O [IFX-021, c[Arg-Arg-Arg-Dip-Trp-Dip]] (cyclo([Dip]RRR[Dip]W))" tgt="human red blood cells" val=260
compound="N=C(N)NCCC[C@H]1NC(=O)[C@@H](CCCNC(=N)N)NC(=O)[C@@H](CCCNC(=N)N)NC(=O)[C@@H](Cc2c[nH]c3ccccc23)NC(=O)[C@@H](Cc2c[nH]c3ccccc23)NC(=O)[C@@H](Cc2c[nH]c3ccccc23)NC(=O)[C@@H](Cc2c[nH]c3ccccc23)NC(=O)[C@@H](CCCNC(=N)N)NC(=O)[C@@H](CCCNC(=N)N)NC1=O [IFX-037, c[arg-arg-arg-arg-arg-trp-trp-trp-trp]]" tgt="human red blood cells" val=670
compound="N=C(N)NCCC[C@H](NC(=O)[C@H](CCCNC(=N)N)NC(=O)[C@H](CCCNC(=N)N)NC(=O)[C@@H](N)CCCNC(=N)N)C(=O)N[C@@H](Cc1ccc2ccccc2c1)C(=O)N[C@@H](Cc1ccc2ccccc2c1)C(=O)O [IFX-011-1, NH2-Arg-Arg-Arg-Arg-NaI-NaI-OH] (H-RRRR[2Nal][2Nal]-OH)" tgt="human red blood cells" val=310
compound="NCCCC[C@@H]1NC(=O)[C@H](CCCCN)NC(=O)[C@H](CCCCN)NC(=O)[C@H](C(c2ccccc2)c2ccccc2)NC(=O)[C@H](C(c2ccccc2)c2ccccc2)NC(=O)[C@H](C(c2ccccc2)c2ccccc2)NC(=O)[C@H](CCCCN)NC(=O)[C@H](CCCCN)NC1=O [IFX-015, c[Lys-Lys-Lys-Lys-Lys-Dip-Dip-Dip]] (cyclo([Dip][Dip][Dip]KKKKK))" tgt="human red blood cells" val=480
compound="N=C(N)NCCC[C@@H]1NC(=O)[C@H](CCN)NC(=O)[C@@H](Cc2ccc3ccccc3c2)NC(=O)[C@@H](Cc2ccc3ccccc3c2)NC(=O)[C@H](Cc2c[nH]c3ccccc23)NC(=O)[C@H](CCN)NC(=O)[C@@H](CCCNC(=N)N)NC(=O)[C@H](CCCNC(=N)N)NC(=O)[C@@H](CCCNC(=N)N)NC1=O [IFX-057, c[Dab-Arg-arg-Arg-arg-Dab-Trp-naI-naI]] (cyclo([Dab]R[dR]R[dR][Dab]W[d2Nal][d2Nal]))" tgt="human red blood cells" val=520

Source: patent US20220289794A1
